test system: L1210 leukemia ip in BDF1 mice, survival T/C; experiment: NCI In Vivo Anticancer Drug Screen. Data for tumor model L1210 Leukemia (intraperitoneal) in B6D2F1 (BDF1) mice; conditions: endpoint: mean survival time; dose: 100.0 mg/kg/injection; schedule: Q01DX009 (ip); vehicle: saline with Tween-80; higher = longer survival
Inconclusive results and toxic doses are left out.
readout type: T/C

# annotated cases, reported T/C shown
compound	experimental system	T/C
CC(C)=CCC/C(C)=C/CO	L1210 leukemia ip in BDF1 mice, survival T/C	98 % of control
COc1ccc(/C=N/NC(=O)CNC(=O)c2ccc(Cl)cc2Cl)cc1OC	L1210 leukemia ip in BDF1 mice, survival T/C	86 % of control
CC(=O)OC(CC/C(C)=C/COC1CCCCO1)C(C)(C)O (centres undefined)	L1210 leukemia ip in BDF1 mice, survival T/C	95 % of control

Enquiry: // query T/C value for entry O=C(c1ccccc1)C1(c2ccccc2)OC1(C(=O)c1ccccc1)c1ccccc1 (centres undefined)
Return: 92 % of control

Enquiry: Form field: reported T/C of c1ccc2c(c1)nnn2-c1ccncc1
Return: 98 % of control
